Tgt: CYP2C19 (Homo sapiens (Human))
Sequence (P33261 whole entry): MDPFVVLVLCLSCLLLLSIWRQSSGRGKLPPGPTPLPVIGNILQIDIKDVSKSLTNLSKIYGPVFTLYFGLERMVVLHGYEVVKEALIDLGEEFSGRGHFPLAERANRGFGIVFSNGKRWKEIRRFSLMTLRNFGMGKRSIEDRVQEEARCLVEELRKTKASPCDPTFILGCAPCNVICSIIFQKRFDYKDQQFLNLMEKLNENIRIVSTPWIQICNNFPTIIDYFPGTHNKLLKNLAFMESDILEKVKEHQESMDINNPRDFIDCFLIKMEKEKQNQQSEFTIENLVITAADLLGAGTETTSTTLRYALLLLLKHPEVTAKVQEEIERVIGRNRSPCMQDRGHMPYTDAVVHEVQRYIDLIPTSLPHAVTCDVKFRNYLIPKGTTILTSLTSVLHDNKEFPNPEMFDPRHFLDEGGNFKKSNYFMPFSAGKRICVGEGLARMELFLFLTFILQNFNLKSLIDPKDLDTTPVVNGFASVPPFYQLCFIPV
Assay: Inhibition of cytochrome P450 isozyme CYP2C19
Format: in vitro ADME
Condition parameters: recombinant enzyme
Assay metric: IC50

1. CCCCC1=N[C@@]2(CC3C[C@H]3C2)C(=O)N1Cc1ccc(-c2ccccc2S(=O)(=O)Nc2noc(C)c2C)c(COCC)c1 (stereo partly shown) | > 10 µM

----------
Tgt: CYP3A4 (Homo sapiens (Human), UniProt P08684)
Sequence (P08684 whole entry): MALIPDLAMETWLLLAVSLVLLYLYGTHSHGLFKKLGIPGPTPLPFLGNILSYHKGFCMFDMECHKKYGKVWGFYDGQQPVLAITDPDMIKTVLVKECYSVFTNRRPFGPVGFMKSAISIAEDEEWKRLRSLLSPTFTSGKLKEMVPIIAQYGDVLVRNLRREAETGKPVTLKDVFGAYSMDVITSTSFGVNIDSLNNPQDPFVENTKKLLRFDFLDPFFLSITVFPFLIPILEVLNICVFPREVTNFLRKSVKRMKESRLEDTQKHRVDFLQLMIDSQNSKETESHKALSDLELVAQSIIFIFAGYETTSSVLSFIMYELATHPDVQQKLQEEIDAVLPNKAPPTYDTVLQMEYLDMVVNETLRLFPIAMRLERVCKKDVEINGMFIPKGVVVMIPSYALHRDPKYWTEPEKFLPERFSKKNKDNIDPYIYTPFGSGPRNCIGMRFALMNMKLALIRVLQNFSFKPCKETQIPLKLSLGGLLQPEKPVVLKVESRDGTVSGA
Assay: Inhibition of cytochrome P450 isozyme CYP3A4
Type: in vitro ADME
Condition parameters: recombinant enzyme
Assay metric: IC50

1. CCCCC1=N[C@@]2(CC3C[C@H]3C2)C(=O)N1Cc1ccc(-c2ccccc2S(=O)(=O)Nc2noc(C)c2C)c(COCC)c1 (stereo partly shown) [Example 3] | 1 to 10 µM

----------
Assay: Pharmacokinetic test in rats
Assay type: in vivo
Condition parameters: rat, plasma; SD rats, PO 10 mg/kg; read-out: Tmax
Assay metric: Tmax

1. CCCCC1=NC2(CCCC2)C(=O)N1Cc1ccc(-c2ccccc2S(=O)(=O)Nc2noc(C)c2C)c(COCC)c1 [Sparsentan, reference compound] | 1.42 h

----------
Tgt: ETa (Homo sapiens (Human))
Sequence (P25101 21-427): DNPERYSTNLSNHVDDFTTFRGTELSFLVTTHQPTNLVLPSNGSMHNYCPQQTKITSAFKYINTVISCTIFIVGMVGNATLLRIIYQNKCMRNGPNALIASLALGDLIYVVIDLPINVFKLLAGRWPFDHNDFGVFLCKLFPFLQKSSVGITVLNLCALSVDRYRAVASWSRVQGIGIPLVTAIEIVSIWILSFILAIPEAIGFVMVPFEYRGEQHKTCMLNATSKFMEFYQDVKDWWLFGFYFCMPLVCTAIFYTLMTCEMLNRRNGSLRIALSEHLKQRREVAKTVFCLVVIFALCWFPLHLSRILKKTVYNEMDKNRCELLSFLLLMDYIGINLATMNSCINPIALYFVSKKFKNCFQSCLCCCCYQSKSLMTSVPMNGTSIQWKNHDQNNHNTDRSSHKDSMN
Assay: Calcium flux assay on ETa cell line
Format: cell-based
Condition parameters: ETa/HEK293, calcium flux, endothelin-1 agonist; read-out: IC50 against ETa
Assay metric: IC50 (nM)

1. CCCCC1=N[C@@]2(CC3C[C@H]3C2)C(=O)N1Cc1ccc(-c2ccccc2S(=O)(=O)Nc2noc(C)c2Cl)c(COCC)c1 (stereo partly drawn) | 24.3
2. CCCCC1=N[C@]2(C[C@H]3C[C@H]3C2)C(=O)N1Cc1ccc(-c2ccccc2S(=O)(=O)Nc2noc(C)c2C)c(CN(C)C(=O)CC(C)(C)C)c1 | 17.6
3. CCCCC1=NC2(CC3(CC3)C2)C(=O)N1Cc1ccc(-c2ccccc2S(=O)(=O)Nc2noc(C)c2C)c(COCC)c1 | 24.6
